# tgt: T1, recombinant human IP-10 (hIP-10) (human, UniProt P02778 22-98)
# T1 sequence (looked up): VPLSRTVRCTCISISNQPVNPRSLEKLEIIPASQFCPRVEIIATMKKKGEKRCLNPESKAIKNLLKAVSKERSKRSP
# measurement description: cell-based or functional assay
Lab note - cut at 30 nM for Chemotaxis IC50 (nM); 1 nM rhIP-10: criterion met if strictly below, criterion not met if not.

Incoming: # strict comparison: is reported Chemotaxis IC50 (nM); 1 nM rhIP-10 < 30 nM? input = CB2R2P4_C3, IgG1 format (antibody, V domains shown) VH: QVTLRESGPALVKPTQTLTLTCTFSGFSLTTSGMSVIWIRQPPGKALEWLARIDSDDEKHYNTSLKTRLAISKDTSKNQVVLTMTNMDPVDTGTYYCARLRAGSGPYVFDSWGQGTTVTVSS VL: QSVLTQPPSASGTPGQRVTISCSGSSSNIGSNTVNWYQRLPGAAPQLLIYNNDQRPSGIPDRFSGSKSGTSGSLVISGLQSEDEADYYCASWDDSLNGRVFGGGTKLTVL
Outgoing: criterion not met

Incoming: Then what about the binder CC21R3P4_F4, IgG1 format (antibody, V domains shown) VH: QVQLVESGGGVAHSGKSLRLSCAASGFTFSNYGMHWVRQAPGKGLEWLAVISYDGSNRYYADSVKGRFTISRDNSNNTLNLQMSSLRAEDTALYYCAKDAGGPLDYWGRGTLVTVSS VL: SYVLTQPPSVSVAPGQMARITCGGNNIGDKSVQWYQQRPGQAPLLVVYDDSDRPSGIPERFSGSYSRNTATLTISRVEAGDEADYYCQVWDSSSDHPEVVFGGGTKLTVL ?
Outgoing: criterion not met

Incoming: Then what about the binder CB21R3P3_E5, IgG1 format (antibody, V domains shown) VH: QVQLVESGGGVVQPGRSLRLSCAASGFTFSSYGMHWVRQAPGKGLEWVAVISYDGSIKYYADSVKGRFTISRDNSKNTLYLQMNSLRAEDAAVYYCARAPDGHQLDYWGRGTLVTVSS VL: NFMLTQPHSVSESPGKTVTISCTGSSGSIASNYVQWYQQRPGSAPTTVIYEDDQRPSDVPDRFSGSIDSSSNSASLTISGLRTEDEADYYCQSYVSSKWVFGGGTKLTVL ?
Outgoing: criterion not met

Incoming: Then what about the binder CB21R3P6_G7, IgG1 format (antibody, V domains shown) VH: QVQLVQSGAEVKKPGSSVTVSCKASGGTFSSFSITWLRQAPGQGLEWMGEITPMFGIANYAQKFQGRVTISADESTSTAYMELSGLTSEDTAMYYCARDGRFDVSDLLTDKPKVTINYNGMDVWGQGTLVTVSS VL: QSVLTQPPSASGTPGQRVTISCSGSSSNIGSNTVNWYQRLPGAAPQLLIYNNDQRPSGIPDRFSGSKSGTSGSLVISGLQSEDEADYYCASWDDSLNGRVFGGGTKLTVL ?
Outgoing: criterion met

Incoming: Then what about the binder CC21R3P1_F1, IgG1 format (antibody, V domains shown) VH: QVQLVESGGGVVQPGRSHTLSCAASGFAFKNSGIHWVRQAPGKGLEWVAVISYDGSNKFYADSVKGRFTISRDNSQNTVYLQMTDLRPDDTAVYYCARDGSESEYLDYWGKGTLVTVSS VL: NFMLTQPHSVSESPGKTVTISCTGSGGSIDRNYVQWYQQRPGSAPITVIYEDNQRPSGVPDRFSGSIDSSSNSASLTISGLRTDDEADYYCQSYDSINLWVFGGGTKVTVL ?
Outgoing: criterion met

Incoming: Then what about the binder CC21R3P1_H6, IgG1 format (antibody, V domains shown) VH: QVQLVESGGGVAQSGKSLRLSCAASGFTFSNYGMHWVRQAPGKGLEWLAVISYDGSNRYYADSVKGRFTISRDNSNNTLNLQMSSLRAEDTALYYCAKDAGGPLDYWGKGTLVTVSS VL: VLTQLTQPPSVSLAPGQTATITCGGDNIGRKSVHWYQQKPGQAPVLVVYDDTDRPSGIPERFSGSNSGNTATLTISRVEAGDEADYYCQVWDSSIDHSWVFGGGTKLTVL ?
Outgoing: criterion not met
